Measured pIC50 values are reported for all entries that follow.
- test_description: Inhibition of LPM7 beta 1i subunit in human Ramos cells using rh110-(pal)2 substrate by fluorogenic assay
- Format: cell-based
pIC50: −log10 of the molar value.
metric: pIC50

query_smiles	metric	val
C[C@H](NC(=O)C1Cc2ccccc2C1)C(=O)N[C@@H](CCc1ccccc1)C(=O)N[C@@H](Cc1ccccc1)C(=O)C(=O)NCc1ccccc1	pIC50	6.01
C[C@H](NC(=O)OCc1ccccc1)C(=O)N[C@@H](CC(F)(F)F)C(=O)N[C@@H](Cc1ccccc1)C(=O)C(=O)NCc1ccccc1	pIC50	5.56
COc1ccc(C[C@H](NC(=O)[C@H](C)NC(=O)C2Cc3ccccc3C2)C(=O)N[C@@H](Cc2ccccc2)C(=O)C(=O)NCc2ccccc2)cc1	pIC50	6.63
CCCC[C@H](NC(=O)[C@H](Cc1c[nH]c2ccccc12)NC(=O)[C@H](C)NC(=O)C1=C(C)c2ccccc2C1)C(=O)C(=O)NCc1ccccc1	pIC50	6.85

---

- test_description: Inhibition of LPM7 beta 5c subunit in human Ramos cells using rh110-(wla)2 substrate by fluorogenic assay
- Assay type: cell-based
pIC50: −log10 of the molar value.
# maps each entry to its pIC50

query_smiles	pIC50
C[C@H](NC(=O)OCc1ccccc1)C(=O)N[C@@H](CC(F)(F)F)C(=O)N[C@@H](Cc1ccccc1)C(=O)C(=O)NCc1ccccc1	5.21
CCCC[C@H](NC(=O)[C@H](Cc1c[nH]c2ccccc12)NC(=O)[C@H](C)NC(=O)C1=C(C)c2ccccc2C1)C(=O)C(=O)NCc1ccccc1	6.25
C[C@H](NC(=O)C1Cc2ccccc2C1)C(=O)N[C@@H](CCc1ccccc1)C(=O)N[C@@H](Cc1ccccc1)C(=O)C(=O)NCc1ccccc1	7.85
COc1ccc(C[C@H](NC(=O)[C@H](C)NC(=O)C2Cc3ccccc3C2)C(=O)N[C@@H](Cc2ccccc2)C(=O)C(=O)NCc2ccccc2)cc1	7.26

---

- test_description: Inhibition of LPM7 beta 1c subunit in human Ramos cells using rh110-(Ile)2 substrate by fluorogenic assay
- Assay type: cell-based
pIC50: −log10 of the molar value.
metric: pIC50

query_smiles	val
C[C@H](NC(=O)OCc1ccccc1)C(=O)N[C@@H](CC(F)(F)F)C(=O)N[C@@H](Cc1ccccc1)C(=O)C(=O)NCc1ccccc1	4.70
C[C@H](NC(=O)C1Cc2ccccc2C1)C(=O)N[C@@H](CCc1ccccc1)C(=O)N[C@@H](Cc1ccccc1)C(=O)C(=O)NCc1ccccc1	4.74
CCCC[C@H](NC(=O)[C@H](Cc1c[nH]c2ccccc12)NC(=O)[C@H](C)NC(=O)C1=C(C)c2ccccc2C1)C(=O)C(=O)NCc1ccccc1	5.48
COc1ccc(C[C@H](NC(=O)[C@H](C)NC(=O)C2Cc3ccccc3C2)C(=O)N[C@@H](Cc2ccccc2)C(=O)C(=O)NCc2ccccc2)cc1	4.70
